meta.source: patent EP4768505A1

This listing pairs binders with measured OD450 nm.
target: Human CD79A+CD79B antigen (human) (UniProt P11912); experiment: ELISA on coated antigen, anti-myc detection; 200pg antibody added
Sequence (P11912 33-143 limits assumed, chain 1 of 2): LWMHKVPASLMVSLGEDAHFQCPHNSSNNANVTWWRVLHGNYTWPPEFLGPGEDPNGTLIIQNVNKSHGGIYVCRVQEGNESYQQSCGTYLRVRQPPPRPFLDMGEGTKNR
Sequence (P40259 29-159 limits assumed, chain 2 of 2, further chain): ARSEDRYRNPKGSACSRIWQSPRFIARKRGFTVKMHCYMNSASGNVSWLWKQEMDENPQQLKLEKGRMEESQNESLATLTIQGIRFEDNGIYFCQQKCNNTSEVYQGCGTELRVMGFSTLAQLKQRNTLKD

- BINDER: "anti-CD79B single-domain antibody JYB14 (VHH, Alpaca VHH from a phage library; ELISA detected with an anti-myc antibody; a myc tag is not described; not shown: His-tag protein at the C-terminal end) VHH: DVQLQESGGGLVQPGGSLSLTCTASISSLTIWVRAWHRQAPGKQRELVAAINSDGQTMYADSVKGRFTISRDNAKTTVSLQMDSLKPEDTAVYYCNVVTPNGQQYWGQGTQVTVSS"
  OD450 nm [OD450]: 0.0561
- BINDER: "anti-CD79B single-domain antibody JYB4 (VHH, Alpaca VHH from a phage library; not shown: His-tag protein at the C-terminal end) VHH: DVQLQESGGGLVQPGGSLRLSCAASGFAFSLYAMSWARQAPGKGLEWVSDIYGDDDSRRNYADSVKGRFTISRDNAKNTVYLQMTNLQPEDTALYYCGKGRDGTRWSAREYEYRGQGTQVTVSS"
  OD450 nm [OD450]: 0.0577
- BINDER: "anti-CD79B single-domain antibody JYB8 (VHH, not shown: small tags and cut ends) VHH: DVQLQESGGGLMQPGGSLSLTCTASISSLSIWVRAWHRQAPGKQRELVAAINSDGQTMYADSVKGRFTISRDSAKTTVSLQMDSLKPEDTAVYYCNVVTPKGQQYWGQGTQVTVSS"
  OD450 nm [OD450]: 0.0521
- BINDER: "anti-CD79B single-domain antibody JYB10 (VHH, Alpaca VHH from a phage library; ELISA detected with an anti-myc antibody; a myc tag is not described; not shown: His-tag protein at the C-terminal end) VHH: DVQLQESGGGLVQPGGSLSLSCAASISSSSIWVRAWHRQAPGKQRELVAAINNDGQTMYADSVKGRFTISRDNAKTTVSLQMNSLKPEDTAVYYCNVVTPKGHQYWGQGTQVTVSS"
  OD450 nm [OD450]: 0.0573
